# Tested target: long form of human GPR120 (Homo sapiens)
# Test: Human GPR120 DiscoveRx PathHunter Beta-Arrestin assay, Procedure β-arrestin A
Property name: pEC50
Note: pEC50 values are expressed as the negative base-10 logarithm of concentration in M.

Consider the following illustrative entries.
[
  {
    "Compound": "Cc1cc(CCC(=O)O)ccc1OCC1=C(c2cccs2)CCC(F)(F)C1",
    "pEC50": 6.76
  },
  {
    "Compound": "Cc1cc(CCC(=O)O)ccc1OCC1=C(c2cncs2)CCC(F)(F)C1",
    "pEC50": 5.87
  }
]

Query (compound): "O=C(O)CCc1ccc(OCC2=C(c3ccc(Cl)cc3)CCC2)c(Cl)c1Cl" ; field requested: pEC50
6.83

Param item: "Cc1ncc(C2=C(COc3ccc(CCC(=O)O)c(C)c3C)CC(F)(F)CC2)s1"
6.14

Param item: "N#Cc1ccc(C2=C(COc3c(F)cc(CCC(=O)O)cc3F)CC(F)(F)CC2)s1"
6.00

Param item: "Cc1c(CCC(=O)O)ccc(OCC2=C(c3ccc(Cl)cc3)CC(F)(F)CC2)c1C"
6.44

Param item: "Cc1c(CCC(=O)O)ccc(OCC2=C(c3ccc(F)cc3)CC(F)(F)C2)c1C"
6.81

Param item: Cc1c(CCC(=O)O)ccc(OCC2=C(c3ccc(Cl)cc3)CC(Cl)C2)c1C (centres unmarked)
6.33

====

# Tested target: human GPR40 (Homo sapiens)
# Sequence (O14842 whole entry): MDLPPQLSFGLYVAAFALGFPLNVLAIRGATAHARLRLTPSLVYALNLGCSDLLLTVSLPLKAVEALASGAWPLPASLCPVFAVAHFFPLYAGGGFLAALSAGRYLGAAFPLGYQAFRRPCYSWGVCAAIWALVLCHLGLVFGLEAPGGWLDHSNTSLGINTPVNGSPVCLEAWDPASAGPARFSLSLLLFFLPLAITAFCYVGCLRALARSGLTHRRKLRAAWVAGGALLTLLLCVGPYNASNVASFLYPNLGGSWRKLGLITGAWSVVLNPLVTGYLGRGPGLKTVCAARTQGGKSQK
# Test: GPR40 calcium flux assay, human GPR40
# Measurement conditions: HEK293 cells stably expressing GPR40; table does not say human or rat
# EC50 per record follows
Field format: number, assumed nM, no unit text.

[
  {
    "Compound": "O=C(O)CCc1ccc(OCC2=C(CCc3ccccc3)CCC2)cc1C(F)(F)F",
    "Unit of measurement": "nM",
    "Observed": 197
  },
  {
    "Compound": "CC1(C)CCC(C2CCCC2)=C(COc2ccc(CCC(=O)O)c(C(F)(F)F)c2)C1",
    "Unit of measurement": "nM",
    "Observed": 1500
  },
  {
    "Compound": "COc1cc(OCC2=C(C3CCCC3)CCC2)ccc1CCC(=O)O",
    "Unit of measurement": "nM",
    "Observed": 59
  },
  {
    "Compound": "CCc1cc(OCC2=C(c3ccc(Cl)cc3)CCC2)ccc1CCC(=O)O",
    "Unit of measurement": "nM",
    "Observed": 401
  },
  {
    "Compound": "O=C(O)CCc1ccc(OCC2=C(C3CCCC3)CCC2)cc1C(F)(F)C(F)(F)F",
    "Unit of measurement": "nM",
    "Observed": 458
  }
]

Query (compound): CC1CCC(COc2ccc(CCC(=O)O)cc2)=C1c1ccc(Cl)cc1 (stereo not drawn) ; field requested: EC50
639

Param item: "O=C(O)CCc1ccc(OCC2=C(c3ccccc3)CCC2)cc1Cl"
1570

Param item: CC1CCC(COc2ccc(CCC(=O)O)c(Cl)c2)=C1c1ccccc1 (stereo not drawn)
543

Param item: CC1CCC(c2ccccc2)=C1COc1ccc(CCC(=O)O)c(C(F)(F)F)c1 (stereo not drawn)
1510

====

# Tested target: long form of human GPR120 (Homo sapiens, UniProt Q5NUL3)
# Sequence (Q5NUL3 1-377 isoform Q5NUL3-1): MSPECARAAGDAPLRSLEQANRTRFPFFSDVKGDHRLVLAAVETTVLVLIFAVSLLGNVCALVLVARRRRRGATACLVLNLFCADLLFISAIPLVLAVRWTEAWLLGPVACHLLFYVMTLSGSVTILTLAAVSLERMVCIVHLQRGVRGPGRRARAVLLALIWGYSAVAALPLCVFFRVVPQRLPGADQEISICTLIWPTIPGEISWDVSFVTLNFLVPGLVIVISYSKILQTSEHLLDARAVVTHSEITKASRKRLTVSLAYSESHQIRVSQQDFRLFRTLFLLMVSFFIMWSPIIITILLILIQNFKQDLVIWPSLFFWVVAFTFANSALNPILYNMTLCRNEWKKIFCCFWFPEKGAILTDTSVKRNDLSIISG
# Sequence (P32121 whole entry partner): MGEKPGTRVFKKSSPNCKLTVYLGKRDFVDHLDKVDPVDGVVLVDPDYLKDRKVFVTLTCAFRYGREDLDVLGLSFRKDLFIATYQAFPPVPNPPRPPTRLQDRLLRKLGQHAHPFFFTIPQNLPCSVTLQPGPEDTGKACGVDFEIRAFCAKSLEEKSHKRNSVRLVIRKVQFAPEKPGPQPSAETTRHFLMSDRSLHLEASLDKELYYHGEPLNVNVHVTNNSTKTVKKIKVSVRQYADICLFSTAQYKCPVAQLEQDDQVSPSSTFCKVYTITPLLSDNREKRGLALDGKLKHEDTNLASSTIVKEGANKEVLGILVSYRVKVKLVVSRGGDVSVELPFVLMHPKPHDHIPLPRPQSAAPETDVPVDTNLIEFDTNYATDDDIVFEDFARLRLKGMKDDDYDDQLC
# Test: Human GPR120 DiscoveRx PathHunter Beta-Arrestin assay, Procedure β-arrestin A
The label is criterion met for EC50 below 300 nM and criterion not met for EC50 equal to or exceeding 300 nM.

[
  {
    "Compound": "Cc1c(CCC(=O)O)ccc(OCC2=C(c3ccc(Cl)cc3)CC(F)(F)C2)c1C [Compound 137]",
    "Label value": "criterion met"
  },
  {
    "Compound": "Cc1cc(CC(C)C(=O)O)ccc1OCC1=C(c2ccc(F)cc2)CCC1 (stereo not shown) [Compound 160]",
    "Label value": "criterion not met"
  },
  {
    "Compound": "Cc1ccc(C2=C(COc3c(F)cc(CCC(=O)O)cc3F)CC(F)(F)CC2)cc1F [Compound 525]",
    "Label value": "criterion met"
  },
  {
    "Compound": "CCC1CCC(COc2ccc(CCC(=O)O)c(C)c2C)=C(c2ccc(Cl)cc2)C1 (stereo not shown) [Compound 522]",
    "Label value": "criterion not met"
  },
  {
    "Compound": "O=C(O)CCc1cc(F)c(OCC2=C(c3ccc(F)c(F)c3)CC(F)(F)C2)c(F)c1 [Compound 184]",
    "Label value": "criterion not met"
  },
  {
    "Compound": "Cc1c(CCC(=O)O)ccc(OCC2=C(c3ccco3)CCC(F)(F)C2)c1C [Compound 552]",
    "Label value": "criterion not met"
  },
  {
    "Compound": "O=C(O)CCc1ccc(OCC2=C(c3ccc(F)cc3)CC(F)C2)cc1C(F)(F)F (stereo not shown) [Compound 186]",
    "Label value": "criterion not met"
  },
  {
    "Compound": "O=C(O)CCc1ccc(OCC2=C(c3ccc(Cl)cc3)CCC2)c(I)c1 [Compound 130]",
    "Label value": "criterion met"
  }
]

For this compound, is EC50 lower than 300 nM? O=C(O)CCc1ccc(OCC2=C(c3ccc(F)cc3)CC(F)(F)C2)cc1C(F)(F)F [Compound 188]
criterion not met

Param item: O=C(O)CCc1cc(F)c(OCC2=C(c3cccs3)CC(F)(F)C2)c(F)c1 [Compound 201]
criterion not met

Param item: O=C(O)CCc1ccc(OCC2=C(c3ccc(Cl)cc3)CCC2)cc1-c1ccccc1 [Compound 136]
criterion not met

Param item: O=C(O)CCc1ccc(OCC2=C(c3ccc(Cl)cc3)CCC2C(F)(F)F)c(F)c1F (stereo not shown) [Compound 32]
criterion not met

Param item: O=C(O)CCc1ccc(OCC2=C(c3ccc(F)cc3)CCC2)c(F)c1 [Compound 49]
criterion met

Param item: Cc1cc(CCC(=O)O)ccc1OCC1=C(c2cccc(F)c2)CC(F)(F)C1 [Compound 191]
criterion met

Param item: Cc1cc(CCC(=O)O)ccc1OCC1=C(c2ccc(C#N)s2)CCC(F)(F)C1 [Compound 573]
criterion not met

Param item: Cc1c(CCC(=O)O)ccc(OCC2=C(c3ccc(Cl)c(F)c3)CC(F)(F)C2)c1C [Compound 171]
criterion met

Param item: Cc1cc(CCC(=O)O)ccc1OCC1=C(c2ccccc2)CCC(F)(F)C1 [Compound 538]
criterion met

Param item: O=C(O)CCc1cc(F)c(OCC2=C(c3ccc(F)cc3F)CC(F)(F)C2)c(F)c1 [Compound 216]
criterion met

Param item: Cc1c(CCC(=O)O)ccc(OCC2=C(c3ccc(F)cc3F)CC(F)(F)C2)c1C [Compound 173]
criterion met

Param item: COc1ncc(C2=C(COc3ccc(CCC(=O)O)c(C)c3C)CCC2)cc1F [Compound 223]
criterion met

====

# EC50 per record follows
# Tested target: UniProt O14842
# Test: GPR40 calcium flux assay, human GPR40
# Measurement conditions: HEK293 cells stably expressing GPR40; table does not say human or rat
Field format: number, assumed nM, no unit text.

Query (compound): "CC(C)C1=C(COc2ccc(CCC(=O)O)c(C(F)(F)F)c2)CCC1" ; field requested: EC50
42

Param item: "Cc1ncc(C2=C(COc3ccc(CCC(=O)O)cc3C)CC(F)(F)CC2)s1"
642

====

# Tested target: human GPR40 (Homo sapiens)
# Test: GPR40 calcium flux assay, human GPR40
# Measurement conditions: HEK293 cells stably expressing GPR40; table does not say human or rat
# EC50 per record follows
Field format: number, assumed nM, no unit text.

[
  {
    "Compound": "O=C(O)CCc1ccc(OCC2=C(Cc3ccccc3)CCC2)cc1",
    "EC50 [nM]": 328
  },
  {
    "Compound": "O=C(O)CCc1ccc(OCC2=C(C3(F)CCC3)CC(F)(F)C2)cc1C(F)(F)F",
    "EC50 [nM]": 89
  },
  {
    "Compound": "COc1ccc(C2=C(COc3ccc(CCC(=O)O)c(C(F)(F)F)c3)CCC2)cc1",
    "EC50 [nM]": 448
  },
  {
    "Compound": "O=C(O)CCc1ccc(OCC2=C(Cc3nccs3)CCC2)cc1C(F)(F)F",
    "EC50 [nM]": 382
  },
  {
    "Compound": "COc1ccc(C2=C(COc3ccc(CCC(=O)O)c(Cl)c3)CCC2)cc1",
    "EC50 [nM]": 1080
  }
]

Query (compound): O=C(O)CCc1ccc(OCC2=C(c3ccc(F)cc3)CC(F)C2)cc1C(F)(F)F (centres unmarked) ; field requested: EC50
382

Param item: "O=C(O)CCc1ccc(OCC2=C(C3CCCC3)CCC2)cc1"
188

Param item: "CC(C)CC1=C(COc2ccc(CCC(=O)O)c(Cl)c2)CCC1"
129

Param item: "Cc1cc(OCC2=C(c3ccc(F)cc3)CC(F)(F)C2)c(F)cc1CCC(=O)O"
1090

Param item: "O=C(O)CCc1ccc(OCC2=C(C3CCCCC3)CCCC2)cc1Cl"
1060

Param item: "O=C(O)CCc1ccc(OCC2=C(C3CCOCC3)CCC2)cc1C(F)(F)F"
132

Param item: "CC(C)(C)CC1=C(COc2ccc(CCC(=O)O)c(C(F)(F)F)c2)CCC1"
71

Param item: "O=C(O)CCc1ccc(OCC2=C(C3CCCC3)CCC2)c(F)c1"
3230

Param item: "O=C(O)CCc1ccc(OCC2=C(c3ccc(Cl)cc3)CCC2)cc1F"
932
